These data points were gathered from PubChem BioAssay AID1259407.

- Test system: CCRIS mutagenicity, Ames/micronucleus/aberration tests
- experiment_summary: CCRIS mutagenicity studies
- measurement_parameters: Test System: AMES SALMONELLA TYPHIMURIUM; Strain/Indicator: TA1535; Metabolic Activation: HAMSTER, LIVER, S-9, AROCLOR 1254 (10%); Method: PREINCUBATION
Active and inactive are the calls of the source. The rule behind the calls is not given here.
Give your call using only these classes: active, inactive

>  <compound>
O=[N+]([O-])c1ccc(CCO)cc1

>  <assigned_label>
active

$$$$
>  <compound>
CCCCCCC=O

>  <assigned_label>
inactive

$$$$
>  <compound>
CC(COc1ccccc1)N(CCCl)Cc1ccccc1 (stereo not given)

>  <assigned_label>
active

$$$$
>  <compound>
CC(C)OCC1CO1 (stereo not given)

>  <assigned_label>
active

$$$$

// switching to the query compound
Exam item: Recorded test call requested for O=C(Nc1cccc2c(=O)c3c(ccc4c5cc(NC(=O)c6ccccc6)c6c(=O)c7ccccc7c(=O)c6c5[nH]c43)c(=O)c12)c1ccccc1
Marked response: inactive

* * *

- System: CCRIS mutagenicity, Ames/micronucleus/aberration tests
- experiment_summary: CCRIS mutagenicity studies
- measurement_parameters: Test System: AMES SALMONELLA TYPHIMURIUM; Strain/Indicator: TA1537; Metabolic Activation: RAT, LIVER, S-9, AROCLOR 1254; Method: STANDARD PLATE
Activity calls are given as the source filed them. No rule for the calls is given here.
Give your call using only these classes: 1 for active, 0 for inactive

>  <sample_smiles>
O=C(O)c1cc([N+](=O)[O-])cc2cccnc12

>  <assigned_label>
0

$$$$
>  <sample_smiles>
C=C(C)C(=O)OCCOCCOC(=O)C(=C)C

>  <assigned_label>
0

$$$$
>  <sample_smiles>
CCOS(C)(=O)=O

>  <assigned_label>
1

$$$$

Exam item: Recorded test call requested for [O-]/[N+](=N\O)c1ccccc1
Marked response: 0

Exam item: Recorded test call requested for Nc1nc2cc(Cl)c(Cl)cc2s1
Marked response: 0

Exam item: Recorded test call requested for CN(C)C(=O)c1nc(CNC(=O)CN)n(-c2ccc(Cl)cc2C(=O)c2ccccc2Cl)n1
Marked response: 0

Exam item: Recorded test call requested for c1ccc2cc3cc4ccccc4cc3cc2c1
Marked response: 1

Exam item: Recorded test call requested for C[C@@H]1O[C@@H](OC[C@H]2O[C@@H](Oc3c(-c4ccc(OCCO)c(OCCO)c4)oc4cc(OCCO)cc(O)c4c3=O)[C@H](O)[C@@H](O)[C@@H]2O)[C@H](O)[C@H](O)[C@H]1O
Marked response: 0

Exam item: Recorded test call requested for CCN(CC)c1ccc(N=Nc2ccc([N+](=O)[O-])cc2)cc1
Marked response: 0

Exam item: Recorded test call requested for OC[C@@H](O)[C@@H](O)[C@H](O)[C@H](O)CO
Marked response: 0

Exam item: Recorded test call requested for O=S(O)S(=O)(=O)O
Marked response: 0

* * *

- Tested on: CCRIS mutagenicity, Ames/micronucleus/aberration tests
- experiment_summary: CCRIS mutagenicity studies
- measurement_parameters: Test System: AMES SALMONELLA TYPHIMURIUM; Strain/Indicator: TA97A; Metabolic Activation: NONE; Method: STANDARD PLATE
The source made the active and inactive calls. How the calls were made is not given here.
measured_quantity: mutagenic call

>  <sample_smiles>
O=C1c2cccc(O)c2C(=O)c2c(O)cc(CO)cc21

>  <mutagenic call>
active; positive

$$$$
>  <sample_smiles>
N#C[Se]Cc1ccccc1

>  <mutagenic call>
inactive; negative

$$$$
>  <sample_smiles>
O=C(O)Cc1c[nH]c2ccccc12

>  <mutagenic call>
inactive; negative

$$$$
>  <sample_smiles>
Cc1cc(C)cc(C)c1

>  <mutagenic call>
inactive; negative

$$$$
>  <sample_smiles>
C\C=C(/C=C(C)/C=C(C)/C=C/C=C(\C)C(=O)[C@]12O[C@H]1[C@@](O)(CCO)NC2=O)C(=O)OC

>  <mutagenic call>
inactive; negative

$$$$

Recorded result, [Cl][Pd-2]([Cl])([Cl])[Cl] , mutagenic call: inactive; negative

Recorded result, CNC(=O)Oc1cccc2c1OC(C)(C)C2 , mutagenic call: inactive; negative

Recorded result, COP(=S)(OC)SCC(=O)N(C)C=O , mutagenic call: inactive; negative

Recorded result, C[C@@H]1C[C@H]2[C@@H]3CCC4=CC(=O)C=C[C@]4(C)[C@@]3(F)[C@@H](O)C[C@]2(C)[C@@]1(O)C(=O)CO , mutagenic call: inactive; negative

Recorded result, COC1=CC(=O)c2c(ncc3c2[nH]c2ccccc23)C1=O , mutagenic call: active; positive

Recorded result, C#C[C@]1(O)CC[C@H]2[C@@H]3CCc4cc(OC)ccc4[C@H]3CC[C@@]21C , mutagenic call: inactive; negative

* * *

- Test system: CCRIS mutagenicity, Ames/micronucleus/aberration tests
- experiment_summary: CCRIS mutagenicity studies
- measurement_parameters: End Point: IN VITRO MICRONUCLEUS; Test System: CHL/IU CELLS; Metabolic Activation: NONE
Active and inactive are the calls of the source. The rule behind the calls is not given here.
measured_quantity: mutagenic call

Answered examples (4):
>  <sample_smiles>
COc1cc2c(c(OC)c1OC)-c1ccc(OC)c(=O)cc1[C@@H](NC(C)=O)CC2

>  <measured_target>
CCRIS mutagenicity, Ames/micronucleus/aberration tests

>  <mutagenic call>
active; positive

$$$$
>  <sample_smiles>
c1ccc2c(c1)ccc1ncccc12

>  <measured_target>
CCRIS mutagenicity, Ames/micronucleus/aberration tests

>  <mutagenic call>
active; positive

$$$$
>  <sample_smiles>
CCOS(C)(=O)=O

>  <measured_target>
CCRIS mutagenicity, Ames/micronucleus/aberration tests

>  <mutagenic call>
active; positive

$$$$
>  <sample_smiles>
CC(=O)[O-].CC(=O)[O-].[Hg+2]

>  <measured_target>
CCRIS mutagenicity, Ames/micronucleus/aberration tests

>  <mutagenic call>
active; positive

$$$$

# input for lookup
Recorded result, CC(=O)[O-].CC(=O)[O-].[Cd+2] , mutagenic call: active; positive

* * *

- Tested on: CCRIS mutagenicity, Ames/micronucleus/aberration tests
- experiment_summary: CCRIS mutagenicity studies
- measurement_parameters: Test System: AMES SALMONELLA TYPHIMURIUM; Strain/Indicator: TA100; Metabolic Activation: NONE; Method: STANDARD PLATE
- Excerpt: The CCRIS database contains chemical records with carcinogenicity, mutagenicity, tumor promotion, and tumor inhibition test results. It was developed by the National Cancer Institute (NCI). Data are derived from studies cited in primary journals, current awareness tools, NCI reports, and other sources. Test results have been reviewed by experts in carcinogenesis and mutagenesis. CCRIS provides historical information from the years 1985 - 2011. It is no longer updated. […]
Active and inactive are the calls of the source. No rule for the calls is given here.
Give your call using only these classes: true (active), false (inactive)

Example results:
>  <molecule>
O=C(Nc1ccccc1Cl)c1csc([N+](=O)[O-])c1

>  <assigned_label>
true

$$$$
>  <molecule>
O=C(c1ccccc1)C1OC1c1ccc([N+](=O)[O-])cc1 (configuration not stated)

>  <assigned_label>
false

$$$$
>  <molecule>
ClC1=C(Cl)[C@]2(Cl)[C@@H]3[C@@H]4C[C@@H]([C@H]5O[C@@H]45)[C@@H]3[C@@]1(Cl)C2(Cl)Cl

>  <assigned_label>
false

$$$$
>  <molecule>
ClC(Cl)=Cc1c(Cl)c(Cl)c(Cl)c(Cl)c1Cl

>  <assigned_label>
false

$$$$
>  <molecule>
C[C@@H]1O[C@H]1C

>  <assigned_label>
true

$$$$

Exam item: Recorded test call requested for O=C1c2ccccc2Cc2ccccc21
Marked response: false

Exam item: Recorded test call requested for CCCS(=O)(=O)n1ncc(Cl)c(Cl)c1=O
Marked response: true

Exam item: Recorded test call requested for NCCNCCN
Marked response: false

Exam item: Recorded test call requested for O=[N+]([O-])c1cc2cccc3c4ccccc4c4cccc1c4c23
Marked response: true

Exam item: Recorded test call requested for CCCCS(=O)(=O)n1ncc(Cl)c(Cl)c1=O
Marked response: true

Exam item: Recorded test call requested for C=C1C(=O)O[C@@H]2[C@H]1CC[C@H](C)[C@@H]1C=CC(=O)[C@@]21C
Marked response: false

Exam item: Recorded test call requested for Nc1ccc(Cc2ccc(N)cc2)cc1
Marked response: false

* * *

- System: CCRIS mutagenicity, Ames/micronucleus/aberration tests
- experiment_summary: CCRIS mutagenicity studies
- measurement_parameters: Test System: AMES SALMONELLA TYPHIMURIUM; Strain/Indicator: TA2637; Metabolic Activation: RAT, LIVER, S-9, PHENOBARBITAL AND 5,6-BENZOFLAVONE; Method: PREINCUBATION
Activity calls are given as the source filed them. No rule for the calls is given here.
Give your call using only these classes: yes (1) (active), no (0) (inactive)

Example results:
>  <sample_smiles>
CC(C)=CCC1=C(O)c2ccccc2C(=O)C1=O

>  <assigned_label>
no (0)

$$$$
>  <sample_smiles>
COc1cc(O)c2c(=O)c3c(O)ccc(O)c3oc2c1

>  <assigned_label>
yes (1)

$$$$
>  <sample_smiles>
COC1=C(OC)C(=O)C(C)=CC1=O

>  <assigned_label>
no (0)

$$$$
>  <sample_smiles>
COc1cc(O)c2c(=O)c3cc(OC)ccc3oc2c1

>  <assigned_label>
yes (1)

$$$$

// switching to the query molecule
Exam item: Recorded test call requested for NC1=CC(=O)C(=O)c2ccccc21
Marked response: yes (1)
